So I've got a bunch of compounds here, and I need their growth inhibition values.
Test: NCI Yeast Anticancer Drug Screen. Data for the bub3 strain (AID 167)
Settings: S. cerevisiae bub3 mutant strain, at 50.0 µM (retest, dose inferred, filed as 5.0), active compounds read high
This is part of a sample that, as a whole, favours compounds with a hit. Of some 79,000 tested, about 15% had one in any assay. Active and inactive are the calls of the source. No stated cut-off is given here; in the data, active means growth inhibition above about 70%; inactive means the rest.

C#CCNC1=CC(=O)CCC1; -13% (inactive)
CCCCCCCCCCCCCCCCCC[n+]1cccc(C(=O)c2ccccc2)c1; 99% (active)
Nc1ncnc2c1c(-c1ccccc1)cn2-c1ccccc1; 81% (active)

Quick one: give me growth inhibition for each item below, same order please.
1. Nc1ccc2c(c1)S(=O)(=O)c1cc(O)ccc1O2
2. NN=C(CC(O)(C(F)(F)Cl)C(F)(F)Cl)CC(O)(C(F)(F)Cl)C(F)(F)Cl
3. O=c1cc(-c2cccc(OCc3ccccc3)c2)[nH]c2cc3c(cc12)OCO3
4. O=[N+]([O-])c1ccccc1C1CN=NN1c1ccccc1 (centres undefined)
5. CCCCCC(=O)NNc1ccccc1
6. COc1ccccc1N=Nc1c(N)nc(N)[nH]c1=O
7. CC(Br)Cc1ccc2c(c1)OCO2 (centres undefined)

[A]
1. 28% (inactive)
2. 100% (active)
3. 6% (inactive)
4. 61% (inactive)
5. 95% (active)
6. -2% (inactive)
7. -14% (inactive)

I would be grateful if you could provide growth inhibition for each of the following entries.
1. CCCC/C=C\CCCCCCCCCC1=C(O)C(=O)C=C(OC)C1=O
2. O=C(CC1CCCC(CC(=O)c2ccccc2)N1CCc1ccccc1)c1ccccc1 (centres undefined)
3. CC(C)C1/C(=N/O)CC(c2ccccc2)N(N=O)C1c1ccccc1 (centres undefined)
4. Oc1ccc(C(c2ccccc2)(c2ccccc2)c2ccccc2)cc1O
5. COC(OC)(c1ccccc1)C(Br)Br
6. COc1ccc(C(c2ccc(OC)c(OC)c2)C(Cl)(Cl)Cl)cc1OC
7. CCOC(=O)C1=C(C)NC(C)=C(C(=O)OCC)C1c1c(-c2ccccc2)noc1C

[A]
1: 86% (active); 2: 98% (active); 3: 98% (active); 4: 99% (active); 5: 89% (active); 6: 97% (active); 7: 70% (active)

###

Test: NCI Yeast Anticancer Drug Screen. Data for the sgs1 mgt1 strain (AID 161);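 further: 0% = growth of cultures given vehicle only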
Conditions: S. cerevisiae sgs1 mgt1 strain, at 5.0 µM (retest, dose inferred, filed as 0.5), active compounds read high
About 79,000 compounds went through this panel and 15% of them were active in at least one assay; those are over-represented in the sample as a whole.
METRIC_NAME: growth inhibition (%)
Numbers only, in %.

Answered examples (2):
CC(C)C(Cl)CC/C(CBr)=C(\Cl)CCl (centres undefined); 27
O=P1(Cc2ccccc2)c2ccccc2-c2ccccc21; -24

Batch of 8 compounds: report growth inhibition for each.
1. O=[N+]([O-])c1cc([N+](=O)[O-])c2ccccc2c1O
2. O=C(Nc1ccccc1)c1ccc([N+](=O)[O-])o1
3. Nc1nc(=O)[nH]c([O-])c1N=O.Nc1nc(=O)[nH]c([O-])c1N=O.[Ag+].[Ag+]
4. O=C(CCN1CCCCC1)N1CCc2c([nH]c3ccccc23)C1c1cccnc1 (centres undefined)
5. COC(=O)C1(Cc2ccc3c(c2)CCC3)Cc2ccccc2C1O (centres undefined)
6. NC(=S)N/N=C/c1cn(CCCl)c2ccccc12
7. O=C1C=CC(=O)c2c(O)c(N3CCN(CCOCCO)CC3)c(Br)c(O)c21
8. CC(=O)Sc1ccc(Br)cc1

[A]
[7, 9, 63, 0, -44, -17, 18, 3]

###

Test: NCI Yeast Anticancer Drug Screen. Data for the bub3 strain (AID 167)
Conditions: S. cerevisiae bub3 mutant strain, at 5.0 µM (retest, dose inferred, filed as 0.5)
The panel holds about 79,000 compounds, 15% with a hit somewhere; the sample as a whole holds those more often. Calls of active or inactive are those of the source. No stated cut-off is given here; in the data, active means growth inhibition above about 70%; inactive means the rest.
Your answer must be one of the following: active, inactive

Solved cases (10 shown):
O=C1Nc2c(Cl)cc(Cl)cc2/C1=N/N=C/c1ccccc1O; inactive
CSc1c(S(C)=O)c2ccccc2n1C (stereo unspecified); inactive
c1cc[c]([Sn]([S]c2cccc3cccnc23)([c]2ccccc2)[c]2ccccc2)cc1; active
O=C(CCc1c[nH]c2ccccc12)c1ccccc1O; inactive
CN(c1ccccc1)N(C)c1ccccc1; inactive
O=C(c1c(F)c(F)c(F)c(F)c1F)n1c(=S)n(C(=O)c2c(F)c(F)c(F)c(F)c2F)c2ccccc21; inactive
Cc1ccc(NNC2=NC(=S)NC(=O)C2)cc1; inactive
O=C(Nc1cccc(Cl)c1)c1ccc([N+](=O)[O-])cc1; inactive
CC(C)(C)OC(=O)N(CCCCNC(=O)OCc1ccccc1)CCCNC(=O)OCc1ccccc1; inactive
OCCCNc1nc2c(Cl)cc(Cl)cc2c2ccccc12; inactive

[Q] Which outcome did this test record for the molecule `Fc1ccc(NC(=S)SCc2ccc(Cl)c(Cl)c2)cc1` ?
[A] inactive

[Q] Recorded test call requested for `Cc1nc(Cl)nc(N)c1[N+](=O)[O-]`
[A] inactive

[Q] Query: recorded result category for `CCC(=O)N(CCC(C)C)c1ccccc1` in this test
[A] inactive

[Q] Could you please tell me the result logged for CC(=O)N1C(C(=O)NNc2ccccc2)CSC1c1ccccc1 (stereo unspecified) in this assay?
[A] inactive

[Q] Query: recorded result category for `CCOC(=O)c1c(SCC#N)n(-c2ccccc2)c(=S)n(-c2ccccc2)c1=O` in this test
[A] inactive

[Q] Tell me the recorded outcome of this test for `CCCCCCCCCCCCNC(=O)C[n+]1cccc(C(N)=O)c1` .
[A] inactive

[Q] // outcome(item) with item = `N#CCc1nc(Cl)cc(Cl)n1`
[A] inactive

[Q] Called result for CC1=CC(=O)CC(c2ccccc2)C1 (stereo unspecified)
[A] inactive

[Q] How was `CNC(=S)/N=c1/sc([N+](=O)[O-])c(C)n1C` classified in this test?
[A] inactive

[Q] Name the outcome recorded for COC(=O)c1ccc2c(c1)C(O)NC(=O)O2 (stereo unspecified) in the assay.
[A] inactive

[Q] Look up the recorded call for `Oc1ccc(Cc2cccc(Br)c2)c(O)c1` in this test.
[A] inactive

[Q] Give the logged outcome of this assay for the following molecule: `C[C@]12CC[C@@H]3c4cc(OCC(F)(F)F)c(O)cc4CC[C@H]3[C@@H]1CC[C@@H]2O`
[A] inactive

[Q] Recorded call for `Cc1c(C)c(NC(=O)/C=C/C(=O)O)c(C)c(C)c1NC(=O)/C=C\C(=O)O` ?
[A] inactive

[Q] Field: outcome | Entry: `Cc1ccc2cc3ccccc3c(-c3ccccc3)c2c1`
[A] inactive

[Q] Fill in: this test's call for `CC(C)C(OC(=O)c1ccc(NCC2=CC(=O)C=CC2=O)cc1)C(C)C` is ___
[A] inactive

[Q] Please indicate how the test categorized CC1CCCN(CC(O)CN2CCCc3ccccc32)C1 (stereo unspecified) .
[A] inactive

[Q] Returns: the outcome recorded for `CC/C(=C(\CC)c1ccc(OCCN2CCOCC2)cc1)c1ccc(OCCN2CCOCC2)cc1` in this assay.
[A] inactive

[Q] What outcome does the record of this test show for O=[N+]([O-])CC(O)c1ccccc1Cl (stereo unspecified) ?
[A] inactive

[Q] Could you check what this test reported for OCc1ccc2c(c1)CC1(C2)Cc2cc3c(cc2C1O)CCC3 (stereo unspecified) ?
[A] inactive

[Q] How was `Nc1ccc2nc(N)sc2c1` classified in this test?
[A] inactive

[Q] Call for entry `COC(=O)[C@@H]1c2cc3c(c(O)c2[C@@H](OC)C[C@@]1(C)O)C(=O)c1c(O)cc2c(c1C3=O)OC1O[C@@]2(C)[C@H](O)[C@@H](N(C)C)[C@@H]1O` :
[A] inactive

[Q] Record lookup: outcome of this test for `S=C(N/N=C(/c1ccccc1)c1ccccn1)N1CCCCC1` ?
[A] inactive

[Q] Called result for `Cc1cc(C)nc(NS(=O)(=O)c2ccc(NC(=O)c3cccnc3Nc3cccc(Cl)c3)cc2)n1`
[A] inactive

[Q] Write down the call the test reported for this molecule. Item: `ClCc1nc2ccccc2c2ccccc12`
[A] inactive

[Q] Call for entry `Cn1c2nc(-[n+]3ccc4ccccc4c3)nc-2c([O-])n(C)c1=O` :
[A] inactive

[Q] Name the outcome recorded for `c1ccc(-c2cc(N3CCCCC3)c(-c3ccccc3)o2)cc1` in the assay.
[A] inactive

###

Consider the following compounds; for each one, report its growth inhibition.
Test: NCI Yeast Anticancer Drug Screen. Data for the bub3 strain (AID 167)
Conditions: S. cerevisiae bub3 mutant strain, at 50.0 µM, active compounds read high
This is part of a sample that, as a whole, favours compounds with a hit. Of some 79,000 tested, about 15% had one in any assay.
Give bare numbers, in %.

CCCCCCC1CC(=O)C1(Cl)Cl (stereo not given); 92

Below is a list of compounds. For each, state its recorded growth inhibition.
1. COC(=O)CCC(NC(=S)N/N=C(\C)c1cnc2ccccc2n1)C(=O)OC (stereo not given)
2. CC12CC(Sc3ccccc3N1)c1ccccc1O2 (stereo not given)
3. O=C(O)c1ccccc1-c1c2cc([N+](=O)[O-])c(=O)c(Br)c-2oc2c(Br)c(O)c([N+](=O)[O-])cc12
4. C/C(=N/Nc1ccc([N+](=O)[O-])cc1[N+](=O)[O-])C(=O)O

[A]
26.8
76.3
66.5
98.5
